The reported numbers originate from patent US20200392198A1.

assayed-system: T1, human GIP receptor (human, UniProt P48546 22-466)
T1 sequence (looked up): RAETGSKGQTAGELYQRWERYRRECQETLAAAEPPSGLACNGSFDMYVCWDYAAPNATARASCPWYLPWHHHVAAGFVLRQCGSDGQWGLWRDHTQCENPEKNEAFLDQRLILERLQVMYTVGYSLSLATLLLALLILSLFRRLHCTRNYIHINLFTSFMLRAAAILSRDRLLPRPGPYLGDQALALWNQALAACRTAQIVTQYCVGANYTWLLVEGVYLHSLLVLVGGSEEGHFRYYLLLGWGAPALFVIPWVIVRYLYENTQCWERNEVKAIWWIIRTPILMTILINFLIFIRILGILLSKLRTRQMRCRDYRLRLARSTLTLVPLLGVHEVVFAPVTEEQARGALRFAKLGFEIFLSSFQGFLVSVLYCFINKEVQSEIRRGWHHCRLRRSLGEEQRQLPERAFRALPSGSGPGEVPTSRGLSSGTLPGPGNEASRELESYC
protocol-summary: cell-based or functional assay
Decide using EC50 (cAMP) alone. Strictly below 60 nM: MET. Equal to or above 60 nM: NOT MET.

# example entries with known answers
> print(dat)
                                     binder  classification
1  HAEGTFISDYSTILDNLAARDFINWLIQTKITD [GIP-GLP-2 co-agonist 1]             MET
2  HADGTFIDDYSTILDNLAARDFINWLIQTKITD [GIP-GLP-2 co-agonist 14]             MET
3  HAEGTFSDEYSTILDNLAARDFINWLIQTKITD [GIP-GLP-2 co-agonist 5]         NOT MET
4  HADGSFSDEMNTILDNLAARDFINWLIQTKITD (ligand) [human native GLP-2]             MET
5  HADGTFISDYSTILDNLAARDFINWLIQTKITD [GIP-GLP-2 co-agonist 3]             MET
6  HADGTFISDYSTILDNLAARDFINWLIQTKGKK [GIP-GLP-2 co-agonist 19]             MET

Now let's try a different one.
Incoming: Just wondering, is EC50 (cAMP) of HAEGTFISDMNTILDNLAARDFINWLIQTKITD [GIP-GLP-2 co-agonist 6] below 60 nM?
Outgoing: NOT MET
